Tested on: MDA Breast Cancer Cell Line
Test details: MTT cytotoxicity assay, transfected MDA cells plus chemotherapeutic drug
Assay type: cell-based, human
Condition parameters: Homo sapiens, MDA cells, prohibitin (siRNA) transfected; Table 6 experiment; read-out: EC50, Prohibitin
Property label: IC50 (µM)
Write the number in µM without appending the unit.

# IC50 of S=P(N1CC1)(N1CC1)N1CC1 = 527

---

Test system: MDA Breast Cancer Cell Line
Test details: MTT cytotoxicity assay, transfected MDA cells plus chemotherapeutic drug
Assay type: cell-based, human
Condition parameters: MDA cells, mock-transfected control; Table 3 experiment; read-out: EC50, Control
Property label: EC50 (µM)
Write the number in µM without appending the unit.

# EC50 of N.N.[Cl][Pt][Cl] [Cisplatinum] = 255

---

Tested on: MDA Breast Cancer Cell Line
Test details: MTT cytotoxicity assay, transfected MDA cells plus chemotherapeutic drug
Type: cell-based, human
Condition parameters: MDA cells, prohibitin (siRNA) transfected; Table 8 experiment; read-out: EC50, Prohibitin
Lab note: compare EC50 with 30 nM, writing criterion met if less and criterion not met if equal or more.

Q: Determine whether this molecule shows EC50 lower than 30 nM (ties excluded): CC[C@]1(O)C[C@H]2CN(CCc3c([nH]c4ccccc34)[C@@](C(=O)OC)(c3cc4c(cc3OC)N(C=O)[C@H]3[C@@](O)(C(=O)OC)[C@H](OC(C)=O)[C@]5(CC)C=CCN6CC[C@]43[C@@H]65)C2)C1
Result: criterion met

Q: Determine whether this molecule shows EC50 lower than 30 nM (ties excluded): CC(=O)O[C@H]1C(=O)[C@@]2(C)[C@H]([C@H](OC(=O)c3ccccc3)[C@]3(O)C[C@H](OC(=O)[C@H](O)[C@@H](NC(=O)c4ccccc4)c4ccccc4)C(C)=C1C3(C)C)[C@]1(OC(C)=O)CO[C@@H]1C[C@@H]2O
Result: criterion met

Q: Determine whether this molecule shows EC50 lower than 30 nM (ties excluded): N[C@@H](Cc1ccc(N(CCCl)CCCl)cc1)C(=O)O
Result: criterion not met

Q: Determine whether this molecule shows EC50 lower than 30 nM (ties excluded): O=C1c2c(O)ccc(O)c2C(=O)c2c(NCCNCCO)ccc(NCCNCCO)c21
Result: criterion met

Q: Determine whether this molecule shows EC50 lower than 30 nM (ties excluded): N.N.[Cl][Pt][Cl] [Cisplatinum]
Result: criterion not met

Q: Determine whether this molecule shows EC50 lower than 30 nM (ties excluded): COc1cccc2c1C(=O)c1c(O)c3c(c(O)c1C2=O)C[C@@](O)(C(=O)CO)C[C@@H]3O[C@H]1C[C@H](N)[C@H](O)[C@H](C)O1
Result: criterion met

---

Tested on: MDA Breast Cancer Cell Line
Test details: MTT cytotoxicity assay, transfected MDA cells plus chemotherapeutic drug
Type: cell-based, human
Condition parameters: MDA cells; Table 7 experiment; direction IS/IR in same cell (E30)
What fold change of EC50, Prohibitin vs Control was measured for each of the following?
Write the number in x without appending the unit.

# fold change of EC50, Prohibitin vs Control of N.N.[Cl][Pt][Cl] [Cisplatinum] = 1.4

# fold change of EC50, Prohibitin vs Control of S=P(N1CC1)(N1CC1)N1CC1 = 1.5

# fold change of EC50, Prohibitin vs Control of CC(=O)O[C@H]1C(=O)[C@@]2(C)[C@H]([C@H](OC(=O)c3ccccc3)[C@]3(O)C[C@H](OC(=O)[C@H](O)[C@@H](NC(=O)c4ccccc4)c4ccccc4)C(C)=C1C3(C)C)[C@]1(OC(C)=O)CO[C@@H]1C[C@@H]2O = 1.9

# fold change of EC50, Prohibitin vs Control of O=C1c2c(O)ccc(O)c2C(=O)c2c(NCCNCCO)ccc(NCCNCCO)c21 = 1.6
